experiment: soluble on expression in E. coli; label from the status in PepcDB or PDB records

| RESIDUE_CODES | soluble on expression in E. coli |
| --- | --- |
| MSGGEAQGKRKQWQRWLSPRYVWRRLRHNIGPKLVSLGAALVLWSVSTGDQRAQVQQSYDVPITVRDTTGASGSDERRAVSDLNPETVRVTLTGRPERLNELRPSNIEALLDVTGVPEGSFNRPVQIVAPSNTVLSKQVPERVQGFVDSELSRTLTVTLGVASPAENSLPRFEVRPSEVQATAPSRVLNQVTRVVTSPVDLDPGEEREAPLIALDSRGRVVEPVTLHPASVSVQRLDTGTLPVKTLPVVLGAPPASLRVQSQTLQPRTVRVVAAPELLGRLREVSGQVDYRVGSSTLPVTLRLPDGAQALETVSVSLVVERIKAPDPGAGAPTQQKSGASSSSGGNLEHHHHHH | soluble |
| GSLVPELNEKDDDQVQKALASRENTQLMNRDNIEITVRDFKTLAPRRWLNDTIIEFFMKYIEKSTPNTVAFNSFFYTNLSERGYQGVRRWMKRKKTQIDKLDKIFTPINLNQSHWALGIIDLKKKTIGYVDSLSNGPNAMSFAILTDLQKYVMEESKHTIGEDFDLIHLDCPQQPNGYDCGIYVCMNTLYGSADAPLDFDYKDAIRMRRFIAHLILTDALK | soluble |

----------
assay: soluble on expression in E. coli; label from the status in PepcDB or PDB records
MEASURE_NAME: soluble on expression in E. coli

| RESIDUE_CODES | soluble on expression in E. coli |
| --- | --- |
| MGSDKIHHHHHHMKITPIAFESLGVRSQATLIETKDLRVLVDPAVSLAPRRYNLPPHQREVDRLTQLAKVLVDVAKDVDVIVVSHYHYDHHDPGYVIPTDIYKNKIVFLKDPQNMINNSQKYRRAPRFLRSIKDKPRKIEIADGKTFEFNTTTISFSPAVPHGADERLGYVIQVAISDKDSTVIFTSDIEGAPKDVHLKFTKEKMPTVIIIDGPLSYLLGRALKEEELENSIRNMEEIIKNGLETVIIDHHVLRDINYAQVLKPVHDIAKDLGVRVTTAAEYLNLEPLILEARRKELYKEDNRPAKIPRGLANLLNAGDG | not soluble |
| MGSDKIHHHHHHMKIQEVKRILTRWQPSSFSLYREVFTQYGGSINMHPDIVDYFMKRYNWHFKFFHYKEDDKIKGAYFICNDQNIGILTRRTFPLSSDEILIPMAPDLRCFLPDRTNRLSALHQPQIRNAIWKLARKKQNCLVKETFSSKFEKTRRNEYQRFLKKGGSVKSVADCSSDELTHIFIELFRSRFGNTSSCYPADNLANFFSQLHHLLFGHILYIEGIPCAFDIVLKSESQMNIYFDVSNGAIKNECRPLSPGSILMWLNISRARHYCQERQKKLLFSIGILKPEWEYKRMWSTPYFTGKSIC | not soluble |
| SMDEVVRIHSSSGTTGKPTVVGYTKHDMEVWGEVMARTFTLAGVTAKDVVHNAYGYGLFTGGLGFHDGAQRVGATIIPASGGFTNRQIMLLRDFKATALTCTPSFAMHLAEVAKSEGFDPRKDFHLKAGIFGAEPSSEGLQRAVADTWGIAYHEIYGLSELIGPGVSCSCEQ | not soluble |
| GAMGDDSMRMSHLKVGSAADIPINISETDLSLLTATVVPPSGREEPCLLKRLRNGHVGISFVPKETGEHLVHVKKNGQHVASSPIPVVISQSEIGDASRVRVSGQGLHEGHTFEPAEFIIDTRDAGYGGLSLSIEGPSKVDINTEDLEDGTCRVTYCPTEPGNYIINIKFADQHVPGSPFSVKVTGEGRVK | soluble |
| MGSDKIHHHHHHMSTTMQVIELNGPNRLSISQRQVPETPVDGVLLKTSAVSICSTDISHYHGNLLAEDYPVILGHEYSGIVVDVGPECPSSLQGQRLAYFGQTDFGGMAEYRALRPLFAGDLRSSPFKTGRFFKDDERAAAITLPDEISDSDAPLIEPITAVLRSILTHPPAVGNRVLVLGGGPCGAIAGAILQTLYATKSVAVLERNQARQEIARSQYANFVFGSAEELRESDDDAFDYVFDALPPLVNIEADSCPRRAAMRAAKPGSKYVLYGASQTLQQFDTWLLLAKGITLASAAFDVDHFPMYKTAFVMKTAKELLLRRIIDPGWMMTNHMSFWRPQEVIQFFAEYYTTPHLKTVIHFDQ | not soluble |

Continue with the sequence presented below.
Which soluble on expression in E. coli value belongs to `GSHMSQSFGRVLTIVHSDCALLERDGNISLLSLPVAERWLRQAQLTPGEAPVCAQPLLIPLRLKVSAEEKSALEKAQSALAELGIDFQSDAQHVTIRAVPLPLRQQNLQILIPELIGYLAKQSVFEPGNIAQWIARNLMSEHAQWSMAQAITLLADVERLCPQLVKTPPGGLLQSVDLHPAIKALKDE` ?
soluble

----------
test: soluble on expression in E. coli; label from the status in PepcDB or PDB records
MEASURE_NAME: soluble on expression in E. coli

Recorded soluble on expression in E. coli, per entry:
| RESIDUE_CODES | soluble on expression in E. coli |
| --- | --- |
| MKTSANIATSASGNGLADVLERVLDKGVVIAGDISVSIASTELLNIKIRLLISSVERAKEIGINWWESDPYFSSQNNSLVQANEKLLERVASLESEIKALRSN | not soluble |
| MHYQPKQDLLQNRIILVTGASDGIGREAALTYARYGATVILLGRNEEKLRRVAQHIADEQHVQPQWFTLDLLTCTAEECRQVADRIAAHYPRLDGVLHNAGLLGEIGPMSEQDPQIWQDVMQVNVNATFMLTQALLPLLLKSDAGSLVFTSSSVGRQGRANWGAYATSKFATEGMMQVLADEYQNRSLRVNCINPGGTRTSMRASAFPTEDPQKLKTPADIMPLYLWLMGDDSRRKTGMTFDAQPGRKPGIAQ | not soluble |
| MSIYEFDSEEEYATFVNWIEAKKPSITDCSIETFNDDLEDFDRLDEDGLYIEYTRVLLDNLNVTKSMDLMIPTHSSFEFSQDFHLDAVRLRSCFGRNNLFNFHCKEIEVSDSEISSENVNQYLRAWAAGCYNELEKLEVLFYGNENKFDWKPLLQGLNRKRTIYEHNIIDPEVTDETTEVKIETEHPGEFDYYYYKWAKIHRKVDSEGNFYMGMIVN | not soluble |
| MRGIRDPRLIPIAEKVMEGKRLSFEDGLVLYQTKDLPTLMRLANLVRERKHGHKTYFVHSIRVSQTNICYVGCTFCAFQRRFGEEGAWDWDVDEVVAWVKERYQPGLTEIHLTAGHHPKRPFAYYLDLVRALKENFPGVQVKAWTAAEIHHFSKIARLPYREVLKALKEAGLDAMPGGGAEIFAERVRRKIARAKVSAEGWLEIHRTAHELGIPTNATMLYGHIETLEERLDHMDRLRRLQDETGGFMSFIPLAFQPDGNQLARELGKKEFTTGLDDLRNLAVARLYLDNFPHIKGYWATLTPELAQVSLDWGVTDVDGTLIEERIVHMAGSPTPQGLTKRELARIILMAGRIPVERDALYREVRVWDRVEA | soluble |
| MVTPREPKKRTTRKKKDPNAPKRALSAYMFFANENRDIVRSENPDITFGQVGKKLGEKWKALTPEEKQPYEAKAQADKKRYESEKELYNATLA | soluble |

Continue with the sequence presented below.
Which soluble on expression in E. coli value belongs to `MAYWLMKSEPDELSIEALARLGEARWDGVRNYQARNFLRAMSVGDEFFFYHSSCPQPGIAGIARITRAAYPDPTALDPESHYHDAKATTDKNPWSAVDVAHVQTFPRVLELGRLKQQAGLVELPLVQKGSRLSVMPVTPEQWAVIVALRLEHHHHHH` ?
soluble

----------
experiment: soluble on expression in E. coli; label from the status in PepcDB or PDB records

| RESIDUE_CODES | soluble on expression in E. coli |
| --- | --- |
| MGSDKIHHHHHHNFDDLLQLLEIHSRVFDVTPPSTGTVGSMRYLEYNGHVLANVEDLYILDNNKLPSPGVPVETLKLFGVDYIQTGDGVKIITCRVNSIEEIGKTVVVNFEGEKNFDVEQTQNSVRIIAKDWLLFRGVVKMPEEVLYEKENVRIERTAESDGQFRILLSAESVGKYVVKPFGERVDPYEKDVVFLVGYGDGRIIVRSFSKDLNGLDLPAYSESLKLARKIANELGYKLEECPVYDIPVGVIGMIVLLKGKDEMPVFLNTVERLMAE | not soluble |
| MGSDKIHHHHHHMGKVNYAAIDIGSNAVRLLIKSIDREAVQEKKIKKVMMLRVPLRLGFDVFSIGELSEKKADKLRRLMKAFRQLMKIYDVDDYRACATSAMRDARNGRTIIKKIEKDTGIRIEIIDGQEEARMIYNNHIECMEDRLGNYMYVDVGGGSTEINLLTNGELVWSVSYNIGTVRMLSNAVKEGTWQQMEEELMKVTEGVAAINIIGSGGNINKLFRLADKKDKKLQRLPVSSLQTVYDVLKPLTPEERVEAFSLKQDRADVIVPAAEIFLKIAEVVHAEYIYVPVIGLSDGIIDNLYAKSLEKEMKVE | not soluble |
| MGSDKIHHHHHHVCSELAKDVPTNMSIKMPSLTPSSLSSLIPSSVPSEVQNVQGKDCMKEAIGADKIARQFSQAAKHYQEHDKVQRLSAQRLRTKMTPIGRLLDIGCGPGTDFSAAPGLNEVLGLDIAPGMLSQMLESFPSYKALCGDAQALPLSDASIDTLYSNLALQWCSDIKTAIGELARVLKPGSQCHLAIVVDGSLSELDALGLRVNAFEQAQTLLDGFSDSHWQIEHHSVEPLRVHFDDLKTLLYSIKGVGASAAMGSDVSQGSDVTQDSDASHGPDDTQGSVSKPPPRLRGRQDWLALCERAEKMRQPEGLPLTYQILFIHASRRG | not soluble |
